- procedure.details: Multiple oral dose pharmacokinetics in patients with SCI (Example 3)
- condition.parameters: both sexes, human, in vivo
endpoint.name: half-life

# compound, value.measured
records = [
    ("Nc1ccncc1 [fampridine, 4-aminopyridine]", "5.7 to 6.9 h"),
]

----------
- procedure.details: Single dose, dose proportionality pharmacokinetics and safety in patients with multiple sclerosis (Example 4)
- Assay type: in vivo, human
- condition.parameters: human, in vivo
- Procedure: This example details the pharmacokinetic properties of Fampridine-SR in tablets of the present invention administered to patients with multiple sclerosis. Plasma samples were analyzed for fampridine using a validated LC/MS/MS assay with a sensitivity of 2 ng/mL. Noncompartmental pharmacokinetic parameter values were calculated using standard methodology. […] Twenty-three subjects received all 4 treatments, and one subject received only 3 treatments; data from all treatments were analyzed. […]

# cpd.smiles, unit.tag, clearance
measured = [
    ("Nc1ccncc1", "mL/min", 637),
]
